Measured values drawn from patent US12240857B2 for this set.

test: in vitro; settings: African green monkey, CC50
MEASURE: CC50 (µM)

1. c1ccc(C23CC4CC(CC(CNC5CCNCC5)(C4)C2)C3)cc1; 3.6
2. O=C(CC12CC3CC(C1)CC(c1ccccc1)(C3)C2)N1CC2CC1CN2Cc1ccccc1 (stereo not shown); 2.2
3. CC12CC3CC(C(=O)N[C@H]4[C@@H]5CNC[C@@H]54)(C1)CC(c1ccccc1)(C3)C2 (stereo partly shown); 29
4. CC12CC3CC(C(=O)N[C@H]4CC[C@@H](N)CC4)(C1)CC(c1ccccc1)(C3)C2 (stereo partly shown); 8.7

---

test: in vivo; conditions: male, CD-1, mouse, iv, 1 mg/kg
MEASURE: AUC(0-inf) (ng·h/mL)

1) CC12CC3CC(C(=O)N[C@H]4CC[C@H](N)CC4)(C1)CC(c1ccccc1)(C3)C2.Cl (stereo partly shown) [Example A78]; 561
